Quick reference: ED50 of the listed items.
tested on: Pseudomonas aeruginosa; assay: In vivo protective dose was determined against Pseudomonas aeruginosa UI-18. after peroral administration; type: functional; conditions: po, read-out: PD50
Answer with a number only, understood to be in mg/kg.

Example entries begin here.
CCn1cc(C(=O)O)c(=O)c2cc(F)c(N3CCC4(CCN(C)C4)C3)c(F)c21 (centres undefined) | 140
CC1COc2c(N3CCC4(CCN(C)C4)C3)c(F)cc3c(=O)c(C(=O)O)cn1c23 (centres undefined) | 200

Below: the item to evaluate.
Query: Consider the molecule CCn1cc(C(=O)O)c(=O)c2cc(F)c(N3CCC4(CCN(C)C4)C3)nc21 (centres undefined) . State its measured ED50.
Result: 200

###

system: Enterobacter cloacae; test: Evaluated for minimum inhibitory concentration against gram-negative bacteria Enterobacter cloacae HA 2646; assay type: functional
Listing of recorded MIC by entry.
Output spec: scalar in µg/mL, unitless text.

CCn1cc(C(=O)O)c(=O)c2cc(F)c(N3CCC4(CCN(C)C4)C3)c(F)c21 (centres undefined) | 0.1
CC1COc2c(N3CCN(C)CC3)c(F)cc3c(=O)c(C(=O)O)cn1c23 (centres undefined) [OFLOXACIN] | 0.1
CCN1CCC2(CCN(c3c(F)cc4c(=O)c(C(=O)O)cn(C5CC5)c4c3F)C2)C1 (centres undefined) | 0.2
CCn1cc(C(=O)O)c(=O)c2c(F)c(F)c(N3CCC4(CCN(C)C4)C3)c(F)c21 (centres undefined) | 0.8
CN1CCC2(CCN(c3c(F)cc4c(=O)c(C(=O)O)cn(C5CC5)c4c3F)C2)C1 (centres undefined) | 0.05
CCNCC1CCN(c2c(F)cc3c(=O)c(C(=O)O)cn(C4CC4)c3c2F)C1 (centres undefined) [PD-117558] | 0.1
CCn1cc(C(=O)O)c(=O)c2cc(F)c(N3CCNCC3)cc21 [NORFLOXACIN] | 0.1
CCn1cc(C(=O)O)c(=O)c2cc(F)c(N3CCC4(CCN(C)C4)C3)nc21 (centres undefined) | 0.4

# ---- query compound ----
Query: State, in one line, measured MIC of CCN1CCC2(CCN(c3nc4c(cc3F)c(=O)c(C(=O)O)cn4CC)C2)C1 (centres undefined)
Result: 1.6

###

system: Escherichia coli; test: Evaluated for minimum inhibitory concentration against gram-negative bacteria Escherichia coli Vogel; type: functional
The reader will find reported MIC values listed item by item below.
Form entry: value (µg/mL) — number only.

Would you please look over these solved cases?
O=C(O)c1cn(C2CC2)c2c(F)c(N3CCC4(CCCN4)C3)c(F)cc2c1=O (stereo not given) | 0.025
CCn1cc(C(=O)O)c(=O)c2cc(F)c(N3CCC4(CCN(C)C4)C3)nc21 (stereo not given) | 0.1
CC1COc2c(N3CCN(C)CC3)c(F)cc3c(=O)c(C(=O)O)cn1c23 (stereo not given) | 0.2
CCNCC1CCN(c2c(F)cc3c(=O)c(C(=O)O)cn(C4CC4)c3c2F)C1 (stereo not given) | 0.05

Here is another molecule to look at.
Query: Give the measured MIC for CCn1cc(C(=O)O)c(=O)c2cc(F)c(N3CCCC4(CCCNC4)C3)c(F)c21 (stereo not given)
Result: 3.1

###

system: Streptococcus pyogenes; assay: In vivo protective dose was determined against Streptococcus pyogenes after subcutaneous administration; conditions: sc, read-out: PD50
Recorded endpoint: ED50 (mg/kg)
Quick note: give the figure in mg/kg, leave out the unit.

Please review the entries below; each comes with its answer.
CCN1CCC2(CCN(c3c(F)cc4c(=O)c(C(=O)O)cn(CC)c4c3F)C2)C1 (centres undefined) | 38
CCn1cc(C(=O)O)c(=O)c2cc(F)c(N3CCC4(CCN(C)C4)C3)nc21 (centres undefined) | 13
CCn1cc(C(=O)O)c(=O)c2cc(F)c(N3CCC4(CCN(C)C4)C3)c(F)c21 (centres undefined) | 27

Now examine the next entry.
Query: Determine its reported ED50: CC1COc2c(N3CCC4(CCN(C)C4)C3)c(F)cc3c(=O)c(C(=O)O)cn1c23 (centres undefined)
Result: 6
